experiment: qHTS for Inhibitors of human tyrosyl-DNA phosphodiesterase 1 (TDP1): qHTS in cells in presence of CPT; note: nearly all actives have a fitted effect of over 55% in size
setup_conditions: chicken DT40 Tdp1-/-;hTDP1 cells + 20 nM CPT, ATP luminescence, 48 h; series mostly up to 46.2 µM
Hit rate of the full screen: of about 420,000 compounds, about 50,000 (12%) were called active. Not shown: some 26% with an inconclusive outcome. Calls come from the whole dose curve; as a rule, active = well fitted inhibition curve with a large enough effect; inconclusive = small, poorly fitted or top-dose-only effect; inactive = flat fitted curve, though single readings scatter. Only a selection was taken, and actives are over-represented in it overall.
// one of class 1 for active, class 0 for inactive, no free text

Consider the worked cases shown below.
COc1ccccc1CCC(=O)NNC(=O)c1ccncc1 | class 0
CCOC(=O)CSc1nnc(-c2cccc(Br)c2)o1 | class 0
CCCCCc1c(Cc2ccccc2)ncn1CCc1ccccc1OC | class 1
CCOC(=O)c1cc2c(=O)n3ccccc3nc2n(CC2CCCO2)c1=NC(=O)c1ccccc1Br (configuration not stated) | class 0
COc1ccc(CCNC(=O)Cn2c(=O)n(CC3CCCO3)c(=O)c3ccccc32)cc1OC (configuration not stated) | class 0
Cc1ccnc(NC(=O)CCCOc2ccccc2)c1 | class 0

Which result was noted for this compound in the test: CCC(=O)NCc1cc(-c2nn(C)c(=O)c3ccccc23)ccc1OC
class 0

Please share the test call associated with CCCCCc1c(-c2cccc(Br)c2)ncn1CCc1ccccc1OC .
class 1

Could you check what this test reported for CCCCCc1c(-c2ccc(OC)c(OC)c2)ncn1CCc1ccccc1OC ?
class 1

Test call for this compound, please: COc1ccc(C(=O)Nc2ccc(C(=O)NCC3CCCO3)cc2)c(OC)c1OC (configuration not stated)
class 0

# fetch the recorded call for COc1ccc2[nH]c(C(=O)N/N=C/c3cc(OC)c(OC)c(OC)c3)cc2c1 here
class 0

Answer briefly: the call reported for CC1CCN(C2=NC(=O)/C(=C/c3cn[nH]c3-c3ccccc3)S2)CC1 in this assay.
class 0

Outcome logged for CCCCn1c(=N)c(S(=O)(=O)c2ccccc2)cc2c(=O)n3cccc(C)c3nc21 in this assay:
class 0

I'd appreciate the recorded outcome for CCc1cccc(C)c1NC(=O)COC(=O)CC1CCCC1 from this test.
class 0

Recorded test outcome, item COCCCn1c(C(=O)NC2CCCCC2)cc2c(=O)n3cccc(C)c3nc21
class 1

Can you look up the reported call for Cc1cccn2c(=O)c3cc(C(=O)NC4CCCCC4)sc3nc12 for me?
class 0

Assay outcome for COc1ccc(CCn2c(=N)c(C(=O)NCC3CCCO3)cc3c(=O)n4cccc(C)c4nc32)cc1OC (configuration not stated) : what was it?
class 1

Field: outcome | Entry: Cc1ccc2nc3c(cc(C(=O)NC4CCCCC4)c(=N)n3C(C)C)c(=O)n2c1
class 0

Field: outcome | Entry: Cc1cccn2c(=O)c3cc(C(=O)NCCN4CCOCC4)c(=N)n(Cc4cccnc4)c3nc12
class 1

I'd appreciate the recorded outcome for O=C(Nc1ccncc1)c1ccc([N+](=O)[O-])cc1Cl from this test.
class 0

Field: outcome | Entry: Cc1ccc2nc3c(cc(C(=O)NCCc4ccccc4)c(=N)n3CC3CCCO3)c(=O)n2c1 (configuration not stated)
class 1

Hi, do you know how N#CC1(NC(=O)COC(=O)CSc2ccc(F)cc2)CCCCC1 came out in this test?
class 0

====

experiment: qHTS for Inhibitors of human tyrosyl-DNA phosphodiesterase 1 (TDP1): qHTS in cells in presence of CPT; note: nearly all actives have a fitted effect of over 55% in size
setup_conditions: chicken DT40 Tdp1-/-;hTDP1 cells + 20 nM CPT, ATP luminescence, 48 h; series mostly up to 46.2 µM
About 50,000 (12%) of roughly 420,000 compounds were called active. Roughly 26% stayed inconclusive and do not appear here. The call rests on the fitted dose curve; in most records, active means well fitted inhibition curve with a large enough effect; inconclusive means small, poorly fitted or top-dose-only effect; inactive means flat fitted curve, though single readings scatter. The sample as a whole holds a higher share of actives than the screen did.
Your reply should match one of these outcome classes. active, inactive

Observe how each entry below is paired with its result.
COC(=O)c1ccc(Cn2c(SCC(=O)N(C)c3ccccc3)nc3ccccc32)cc1 | active
COc1ccc(N2CCC(CNC(=S)Nc3c(C)cccc3C)C2)cc1 (stereo not given) | active
CCN(CC(=O)Nc1ccccc1C(F)(F)F)C(=O)C1CCN(C(=O)Nc2ccccc2)CC1 | inactive
Fc1ccccc1N=C1Nc2cccc3cccc1c23 | inactive
COC(=O)Nc1ccc(S(=O)(=O)Nc2cc(OC)nc(OC)n2)cc1 | inactive
COc1ccc(OC)c(Nc2nc3ccccc3n3cnnc23)c1 | active

Entry CCn1cc(C(=O)OCC(=O)Nc2cccc(C)c2)c(=O)c2ccc(C)nc21 : call = ?
inactive

For C[C@H](NS(=O)(=O)c1ccc(Cl)cc1)C(=O)OCC(=O)N1CCOCC1 , which call appears in the assay record?
inactive

What classification did COc1ccc(OC)c(C(O)c2nc3ccccc3n2C)c1 (stereo not given) end up with in this test?
inactive

Given CCOC(=O)C1CCN(C(c2cc3cc(C)cc(C)c3[nH]c2=O)c2nnnn2C2CCCCC2)CC1 (stereo not given) , state the outcome it received in this test.
inactive

Please share the test call associated with CCc1nc2ccc(C(=O)N3CCN(c4cccc(Cl)c4)CC3)cc2nc1CC .
inactive

Test call, this compound: O=C(COC(=O)c1ccc(Oc2ccccc2)cc1)Nc1nnc(-c2ccccc2)o1
inactive

====

experiment: qHTS for Inhibitors of human tyrosyl-DNA phosphodiesterase 1 (TDP1): qHTS in cells in presence of CPT; note: nearly all actives have a fitted effect of over 55% in size; note: potency is the fitted concentration of half-maximal effect
setup_conditions: chicken DT40 Tdp1-/-;hTDP1 cells + 20 nM CPT, ATP luminescence, 48 h; series mostly up to 46.2 µM
Among all 420,000 compounds or so, about 50,000 (12%) were called active. Not shown: some 26% with an inconclusive outcome. The full list was thinned out, with actives kept by preference.
quantity_measured: Potency

As a guide, the following entries are already answered.
Cc1ccc(CN2CCN(Cc3ccc4ncccc4c3)CC2CCO)cc1 (stereo unspecified) | inactive
COc1cc(C)c(C)cc1S(=O)(=O)N1CCCc2ccccc21 | 16.4 µM (active)
CC(C)(C)NC(=O)NCc1ccco1 | inactive
CSc1ccccc1OCc1cc(C(=O)N2C[C@H]3CC[C@H]2C3)no1 | inactive
CC(=O)Nc1cccc(-c2ccnc3c2CC(C)(C(=O)NCc2ccccc2)O3)c1 (stereo unspecified) | 0.82 µM (active)
Cc1ccc(C(=O)NCCc2nnc(SCC(=O)Nc3cccc(C(=O)O)c3)n2C)cc1 | inactive

Give reported Potency value for CC(=O)Nc1cccc(-c2ccnc3c2CC(C)(C(=O)NCc2ccco2)O3)c1 (stereo unspecified)
1.03 µM (active)

Please indicate Potency recorded for O=C(c1cc(S(=O)(=O)N2CCOCC2)ccc1Cl)N1CCOCC1
inactive

Quote Potency reported for O=C(Nc1ccc(Cl)c(C(F)(F)F)c1)C1Cc2c(-c3ccccc3Oc3ccccc3)ccnc2O1 (stereo unspecified) please.
18.4 µM (active)

Identify the reported Potency for the following entry. COc1ccc(NC(=O)Nc2cccc(-c3noc(C)n3)c2)cc1
inactive

Return reported Potency. Input compound: CC1(C)Cc2cccc(OCC(=O)NCc3ccccc3)c2O1
inactive

In one line, give reported Potency of the entry O=C(O)c1ccccc1C(=O)NC1=NN(c2ccccc2)CC1 .
inactive

Give the measured Potency for C=Cc1ccc(C(=O)N2CCCC(CCC(=O)N3CCN(c4ccccn4)CC3)C2)cc1 (stereo unspecified)
inactive

====

experiment: qHTS for Inhibitors of human tyrosyl-DNA phosphodiesterase 1 (TDP1): qHTS in cells in presence of CPT; note: nearly all actives have a fitted effect of over 55% in size
setup_conditions: chicken DT40 Tdp1-/-;hTDP1 cells + 20 nM CPT, ATP luminescence, 48 h; series mostly up to 46.2 µM
Out of some 420,000 compounds screened, about 50,000 (12%) were called active. About 26% were inconclusive and are not listed. Calls follow the shape of the dose curve; as a rule, active = well fitted inhibition curve with a large enough effect; inconclusive = small, poorly fitted or top-dose-only effect; inactive = flat fitted curve, though single readings scatter. What follows is part of a selection rich in actives, with near analogues and random picks from the rest.
One label from this list, please: True for active, False for inactive

Example entries begin here.
CC(=O)Nc1ccc(Oc2ccc3c(c2)C(=O)NC3=O)cc1 | False
CN1C(=O)CC(c2ccccc2)C1=O (stereo unspecified) | False
CC(C)(C)c1ccc(S(=O)(=O)N2CCN(C(=O)c3ccc4c(c3)C(=O)N(Cc3ccncc3)C4=O)CC2)cc1 | False

What outcome does the record of this test show for CC(C)OC(=O)c1ccc(NCc2cc(O)ccc2O)cc1Cl ?
True

Dear colleague, could you share the recorded outcome for COc1cc(C#Cc2ccc3cc(CCCO)oc(=O)c3c2)cc(OC)c1 when you have a moment?
True

// outcome(item) with item = N#C/C(=C\c1ccc(O)c(O)c1)C(=O)NCc1ccccc1
True

What was the test verdict on COc1ccccc1CNc1ncncc1-c1cccnc1 ?
False

What is the recorded call for this compound in the test? Cc1c(Cl)cccc1NC(=O)CCC(=O)N/N=C/c1ccco1
False

====

experiment: qHTS for Inhibitors of human tyrosyl-DNA phosphodiesterase 1 (TDP1): qHTS in cells in presence of CPT; note: nearly all actives have a fitted effect of over 55% in size; note: potency is the fitted concentration of half-maximal effect
setup_conditions: chicken DT40 Tdp1-/-;hTDP1 cells + 20 nM CPT, ATP luminescence, 48 h; series mostly up to 46.2 µM
The campaign covered roughly 420,000 compounds. About 50,000 (12%) were called active. Roughly 26% stayed inconclusive and do not appear here. The sample holds actives, similar compounds and a random draw of the others, so the mix is not that of the screen.
quantity_measured: Potency

Below are worked cases with known answers.
O=c1c2c(-c3ccccc3)ccnc2[nH]n1-c1ccccc1 | inactive
CSc1c(SCc2ccccc2)cnn(Cc2ccccc2)c1=O | inactive
CCN1C(=NCCc2cccnc2)N[C@@H](c2ccccc2)[C@H](C(=O)OC)[C@H]1C | inactive
CCN1C(=O)N[C@@H](c2ccccc2)[C@H](C(C)=O)[C@H]1C | inactive
CCOC(=O)N1CCN(C(=O)c2cc3c(-c4ccc(Cl)cc4)nn(C)c3s2)CC1 | 16.4 µM (active)

Consider the compound CCOC(=O)N1CCN(C(=O)c2ccc3nc4cc(Cl)ccc4c(=O)n3c2)CC1 . State its measured Potency.
inactive

Supply recorded Potency for COc1cccc(-c2ccc3c(c2)S(=O)(=O)c2cccc(C(=O)O)c2C3=O)c1OC here.
inactive

Query Potency for O=C(NCCc1cccc(F)c1)C1CC(O)CN1C(=O)Nc1ccccc1 (configuration not stated)
inactive

Read the entry O=C(COc1ccc(Br)cc1)OCC(=O)c1ccc[nH]1 and write its reported Potency.
inactive

Tell me measured Potency for O=C(NCC1CCCO1)c1cc(-c2ccccc2)nc2ccccc12 (configuration not stated) please.
inactive

All values here come from PubChem BioAssay AID686979.
